Origin of the recorded values: PubChem BioAssay (NCI)

System: HL-60(TB) leukemia
Assay: NCI tumour cell line growth inhibition, 48 h
result type: GI50

CCOc1ccccc1CCN=C1NC(=O)/C(=C/c2ccc3ncccc3c2)S1 = 789 nM
CCSC1=NC2C(N(CC)C(=O)N2CC)N1/N=C/C=C/c1ccccc1[N+](=O)[O-] (centres undefined) = 205 nM
O=C(NCC1CC1)c1ccc(-c2cccc(C(=O)NC3CC3)c2)cc1 = > 25000 nM

Each of the following entries comes with a recorded value; kindly state GI50 for each.
1. CO/N=C(\COc1ccc2c(c1)[nH]c1ccccc12)c1ccc(OC)cc1
2. CCN1C(=O)N(CC)C2C1NN=c1s/c(=C\c3ccc(Cl)cc3Cl)c(=O)n12 (centres undefined)
3. O=S(=O)(/N=c1\scc(-c2ccccc2)n1-c1ccccc1)c1ccc(N2N=C3c4ccccc4CC3C2c2ccc(Cl)cc2)cc1 (centres undefined)
4. CC(CO)Nc1cc(-c2[nH]c3cccnc3c2-c2ccc(F)cc2)ccn1 (centres undefined)
5. CC1=C2C(=C[C@@](C)(CO)[C@@H]2OC(=O)N(C)CCN(C)C(=O)OC(C)(C)C)C(=O)[C@](C)(O)C12CC2
6. COc1ccc(-c2noc(C(=O)O)c2-c2cc(OC)c(OC)c(OC)c2)cc1

Out:
1: 62200 nM; 2: 22.7 nM; 3: 29600 nM; 4: > 25000 nM; 5: 2300 nM; 6: 2190 nM
